From: patent US20230083012A1

System: HBV
Assay Protocol: Anti-HBV activity in HepG2.2.15 cells (HBV DNA in culture medium by qPCR)
Format: cell-based
Condition Set: Hepatitis B virus, HepG2.2.15, 144 h, HepG2.2.15 cells, 6 days treatment, HBV DNA in culture medium quantified by real-time PCR; read-out: EC50
pEC50: −log10 of the molar value.
Known pEC50 of a selection of molecules
Measured Parameter: pEC50

CCOC(=O)C1=C(CN2CC(F)(F)[C@@H]3[C@H]2CON3CC(C)(C)C(=O)O)NC(c2nccs2)=N[C@@H]1c1ccc(F)nc1C (single isomer, unassigned)    7.48
COC(=O)C1=C(CN2CC(F)(F)[C@@H]3C(=O)N(CC(C)(C)C(=O)O)C[C@@H]32)NC(c2nccs2)=N[C@H]1c1ccc(F)cc1Cl (single isomer, unassigned)    7.55
CCOC(=O)C1=C(CN2CC(F)(F)[C@@H]3CN(C[C@@H](CC)C(=O)O)C(=O)C32)NC(c2nccs2)=N[C@H]1c1cccc(F)c1C (single isomer, unassigned) [Compound 183A]    7.84
CCOC(=O)C1=C(CN2CC(F)(F)[C@H]3[C@@H]2CN(C(C)=O)N3CCC(C)(C)C(=O)O)NC(c2nccs2)=N[C@H]1c1cccc(F)c1Cl (single isomer, unassigned) [Compound 81B]    7.89
